Reported Tmax values are given for each entry in this list.
# Protocol Text: Blood levels after oral gavage dosing of mice (LC-MS)
# Condition Parameters: mouse, in vivo, po

Molecule: CC(C)COc1ccc2cc(-c3nn(CC4CCN(C)CC4)c4ncnc(N)c34)ccc2c1 [Compound 124]
Value Unit: h
Tmax: 3

Molecule: Cn1ncc2cc(-c3nn(CC4CCNCC4)c4ncnc(N)c34)ccc21 [Compound 121]
Value Unit: h
Tmax: 1.5

Molecule: COc1ccc2cc(-c3nn(C(C)C)c4ncnc(N)c34)ccc2c1 [Compound 7q]
Value Unit: h
Tmax: 0.5

Molecule: COc1ccc2cc(-c3nn(CC4CCNCC4)c4ncnc(N)c34)ccc2c1 [Compound 28]
Value Unit: h
Tmax: 2.67

Molecule: CCOc1ccc2cc(-c3nn(CC4CCNCC4)c4ncnc(N)c34)ccc2c1 [Compound 29]
Value Unit: h
Tmax: 2

---

# Target Of Assay: Abl3D (Homo sapiens)
# Sequence (P00519 whole entry, looked up): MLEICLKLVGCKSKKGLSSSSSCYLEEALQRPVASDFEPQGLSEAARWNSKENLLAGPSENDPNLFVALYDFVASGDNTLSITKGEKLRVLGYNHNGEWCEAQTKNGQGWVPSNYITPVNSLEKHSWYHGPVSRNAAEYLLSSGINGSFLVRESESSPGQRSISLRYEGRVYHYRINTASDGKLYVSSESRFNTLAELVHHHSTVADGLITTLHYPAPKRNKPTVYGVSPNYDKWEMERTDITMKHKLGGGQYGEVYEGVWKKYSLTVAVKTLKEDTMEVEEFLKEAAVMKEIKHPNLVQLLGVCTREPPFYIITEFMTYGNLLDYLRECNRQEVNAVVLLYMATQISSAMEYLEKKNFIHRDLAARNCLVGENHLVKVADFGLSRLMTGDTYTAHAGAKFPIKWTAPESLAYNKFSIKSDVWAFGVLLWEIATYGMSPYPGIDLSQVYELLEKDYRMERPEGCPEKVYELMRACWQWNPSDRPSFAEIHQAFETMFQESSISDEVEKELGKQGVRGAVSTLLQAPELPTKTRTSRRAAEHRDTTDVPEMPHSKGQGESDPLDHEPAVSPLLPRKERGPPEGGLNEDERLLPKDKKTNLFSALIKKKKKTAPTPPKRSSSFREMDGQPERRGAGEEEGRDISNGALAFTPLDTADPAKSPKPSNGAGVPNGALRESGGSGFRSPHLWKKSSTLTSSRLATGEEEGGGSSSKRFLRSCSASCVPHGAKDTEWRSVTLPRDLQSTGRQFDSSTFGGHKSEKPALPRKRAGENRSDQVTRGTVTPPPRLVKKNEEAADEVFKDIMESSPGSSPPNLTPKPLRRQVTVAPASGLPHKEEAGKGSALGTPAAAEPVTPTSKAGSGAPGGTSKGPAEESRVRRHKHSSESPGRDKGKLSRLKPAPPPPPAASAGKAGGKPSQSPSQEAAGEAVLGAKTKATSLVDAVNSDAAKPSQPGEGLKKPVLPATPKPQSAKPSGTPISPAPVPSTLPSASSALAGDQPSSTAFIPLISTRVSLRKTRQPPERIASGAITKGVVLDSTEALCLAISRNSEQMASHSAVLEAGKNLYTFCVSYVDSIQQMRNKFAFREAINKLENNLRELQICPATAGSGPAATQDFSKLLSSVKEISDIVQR
# Protocol Text: Tyrosine kinase IC50, Abl3D
# Type: biochemical
# Condition Parameters: Table 9

Input Smiles: Nc1nc2ccc(C(=O)c3ccccc3)cc2[nH]1
IC50: ~10 µM

---

# Test system: human fibroblast
# Protocol Text: Human fibroblast replication / cytotoxicity (Alamar blue)
# Type: cell-based
Measure: Observed HFF Toxicity (T at concentration)

Input Smiles: Nc1ncnc2c1c(-c1ccc3cc(OCc4ccccc4)ccc3c1)nn2CC1CCNCC1
Recorded Result: T at 100 μM

Input Smiles: CCCOc1ccc2cc(-c3nn(CC4CCNCC4)c4ncnc(N)c34)ccc2c1
Recorded Result: T at 100 μM

Input Smiles: CCCCOc1ccc2cc(-c3nn(CC4CCNCC4)c4ncnc(N)c34)ccc2c1
Recorded Result: 25 to 100 µM

---

# Protocol Text: Solubility in buffers of various pH
# Assay type: physicochemical
# Condition Parameters: buffer, pH 6.5, aqueous buffer; read-out: Experimental Solubility pH 6.5
Classification field: enter label 1 for solubility values not below 20 µM, label 0 for values below it.

Input Smiles: COc1ccc2cc(-c3nn(CC4CCNCC4)c4ncnc(N)c34)ccc2c1
Group Label: label 1
//
Input Smiles: Cn1ncc2cc(-c3nn(C(C)(C)C)c4ncnc(N)c34)ccc21
Group Label: label 0
//
Input Smiles: Nc1ncnc2c1c(-c1ccc3ncccc3c1)nn2CC1CCNCC1
Group Label: label 1
//
Input Smiles: COc1ccc2cc(-c3nc(C(C)(C)C)n4ccnc(N)c34)ccc2c1
Group Label: label 0
//
Input Smiles: Cc1cccc(-c2nn(C(C)(C)C)c3ncnc(N)c23)c1
Group Label: label 0
//
Input Smiles: CC(C)(C)n1nc(-c2ccc3ccccc3c2)c2c(N)ncnc21
Group Label: label 0
//
Input Smiles: Nc1ncnc2c1c(-c1ccc3cc(OCc4ccccc4)ccc3c1)nn2CC1CCNCC1
Group Label: label 1
//
Input Smiles: CC(C)(C)n1nc(-c2ccc3ncccc3c2)c2c(N)ncnc21
Group Label: label 0
//
Input Smiles: Nc1ncnc2c1c(-c1ccc(Cl)cc1)nn2CC1CCNCC1
Group Label: label 1

---

# Target Of Assay: UniProt P00519
# Protocol Text: Tyrosine kinase IC50, AblKD
# Type: biochemical
# Condition Parameters: Table 9
Measure: IC50

Input Smiles: Nc1ncnc2c1cnn2CC1CCNCC1
Target Of Assay: UniProt P00519
Recorded Result: > 10 µM

Input Smiles: CCOc1ccc2cc(-c3nn(CC4CCN(C)CC4)c4ncnc(N)c34)ccc2c1
Target Of Assay: UniProt P00519
Recorded Result: > 3 µM

Input Smiles: Nc1ncnc2c1c(Cc1cccc3ccccc13)nn2CC1CCNCC1
Target Of Assay: UniProt P00519
Recorded Result: > 20 µM

Input Smiles: CCOc1ccc2cc(-c3nn(CC4CCNCC4)c4ncnc(N)c34)ccc2c1
Target Of Assay: UniProt P00519
Recorded Result: > 20 µM

Input Smiles: CC(C)(C)n1ncc2c(N)ncnc21
Target Of Assay: UniProt P00519
Recorded Result: > 10 µM

Input Smiles: Nc1ncnc2c1c(-c1cnc3ccccc3c1)nn2CC1CCNCC1
Target Of Assay: UniProt P00519
Recorded Result: > 20 µM

Input Smiles: CC(C)(C)n1nc(Cc2cccc3ccccc23)c2c(N)ncnc21
Target Of Assay: UniProt P00519
Recorded Result: 7.7 µM

Input Smiles: CC(C)(C)n1nc(-c2ccccc2)c2c(N)ncnc21
Target Of Assay: UniProt P00519
Recorded Result: 0.636 µM

Input Smiles: COc1ccc2cc(-c3nn(CC4CCNCC4)c4ncnc(N)c34)ccc2c1
Target Of Assay: UniProt P00519
Recorded Result: > 20 µM
